MIC90 for assorted compounds
Test system: Morganella morganii
assay.protocol: Antibacterial activity against Morganella morganii
Type: functional
Reply numerically in µg/mL, unit not repeated.

In [3]: df
Out[3]:
                                   compound  display_unit  number
0  Cc1c(N2CC[C@@H]([C@H](C)N)C2)c(F)cc2c(=O)n(N)c(=O)n(C3CC3)c12         µg/mL       8
1  C[C@H]1COc2c(N3CCN(C)CC3)c(F)cc3c(=O)c(C(=O)O)cn1c23.C[C@H]1COc2c(N3CCN(C)CC3)c(F)cc3c(=O)c(C(=O)O)cn1c23.O         µg/mL      16
2  Cc1c(N2CC[C@@H]([C@H](C)N)C2)c(F)cc2c(=O)[nH]c(=O)n(C3CC3)c12         µg/mL      32
3  C[C@H]1NCc2cc(-c3ccc4c(=O)c(C(=O)O)cn(C5CC5)c4c3OC(F)F)ccc21         µg/mL      32

Pending compound:
Q: Look up MIC90 for this compound: COc1c(N2CCNC(C)C2)c(F)cc2c(=O)c(C(=O)O)cn(C3CC3)c12 (stereo not given)
A: 32

----------
Tested on: Finegoldia magna
assay.protocol: Antibacterial activity against Peptostreptococcus magnus
Type: functional
parameter.measured: MIC (mg/L)
Only the number, expressed in mg/L, is required.

                                   compound  parameter_measured  display_unit  number
0  COc1c(N2CCNC(C)C2)c(F)cc2c(=O)c(C(=O)O)cn(C3CC3)c12 (stereo not given)                 MIC          mg/L    0.06
1  C[C@H]1COc2c(N3CCN(C)CC3)c(F)cc3c(=O)c(C(=O)O)cn1c23.C[C@H]1COc2c(N3CCN(C)CC3)c(F)cc3c(=O)c(C(=O)O)cn1c23.O                 MIC          mg/L   0.125
2  Cc1c(N2CC[C@@H]([C@H](C)N)C2)c(F)cc2c(=O)n(N)c(=O)n(C3CC3)c12                 MIC          mg/L    0.03
3  Cc1c(N2CC[C@@H]([C@H](C)N)C2)c(F)cc2c(=O)[nH]c(=O)n(C3CC3)c12                 MIC          mg/L    0.06

The record that follows has no MIC shown yet.
Q: # lookup: MIC of C[C@H]1NCc2cc(-c3ccc4c(=O)c(C(=O)O)cn(C5CC5)c4c3OC(F)F)ccc21
A: 0.015

----------
System: Fusobacterium nucleatum
assay.protocol: Antibacterial activity against Fusobacterium nucleatum
Format: functional
Let's look at some molecules and their measured MIC.
# output: bare number, implied unit µg/mL

// worked examples, MIC included
molecule	parameter.measured	number
C[C@H]1NCc2cc(-c3ccc4c(=O)c(C(=O)O)cn(C5CC5)c4c3OC(F)F)ccc21 [GARENOXACIN]	MIC	0.125
Cc1c(N2CC[C@@H]([C@H](C)N)C2)c(F)cc2c(=O)[nH]c(=O)n(C3CC3)c12	MIC	0.125
COc1c(N2CCNC(C)C2)c(F)cc2c(=O)c(C(=O)O)cn(C3CC3)c12 (stereo not given) [GATIFLOXACIN]	MIC	0.015
C[C@H]1COc2c(N3CCN(C)CC3)c(F)cc3c(=O)c(C(=O)O)cn1c23.C[C@H]1COc2c(N3CCN(C)CC3)c(F)cc3c(=O)c(C(=O)O)cn1c23.O [LEVOFLOXACIN]	MIC	0.03

Now take the following molecule into account.
Q: Could you share which MIC value was measured for Cc1c(N2CC[C@@H]([C@H](C)N)C2)c(F)cc2c(=O)n(N)c(=O)n(C3CC3)c12 ?
A: 0.06

----------
Test system: Streptococcus viridans
assay.protocol: Antibacterial activity against Streptococcus viridans
Assay type: functional
log10(MIC90) for assorted molecules
Scale: decimal log of MIC90, MIC90 in µg/mL.

>>> print(df.to_string())
                                   molecule         target_of_assay  number
0  Cc1c(N2CC[C@@H]([C@H](C)N)C2)c(F)cc2c(=O)n(N)c(=O)n(C3CC3)c12  Streptococcus viridans   -1.52

Q: // lookup log10(MIC90) for C[C@H]1COc2c(N3CCN(C)CC3)c(F)cc3c(=O)c(C(=O)O)cn1c23.C[C@H]1COc2c(N3CCN(C)CC3)c(F)cc3c(=O)c(C(=O)O)cn1c23.O
A: 0.00

Q: Same again, this time with COc1c(N2CCNC(C)C2)c(F)cc2c(=O)c(C(=O)O)cn(C3CC3)c12 (stereo not given)
A: -0.30

Q: Then this molecule: Cc1c(N2CC[C@@H]([C@H](C)N)C2)c(F)cc2c(=O)[nH]c(=O)n(C3CC3)c12
A: -1.22

Q: Here is the next molecule: C[C@H]1NCc2cc(-c3ccc4c(=O)c(C(=O)O)cn(C5CC5)c4c3OC(F)F)ccc21
A: -0.60

----------
Attribute: MIC50
Test system: Streptococcus sanguinis
assay.protocol: Antibacterial activity against Streptococcus sanguis
Type: functional
Numeric only. Scale: µg/mL

compound	target.of.assay	display.unit	number
C[C@H]1NCc2cc(-c3ccc4c(=O)c(C(=O)O)cn(C5CC5)c4c3OC(F)F)ccc21 [GARENOXACIN]	Streptococcus sanguinis	µg/mL	0.125
C[C@H]1COc2c(N3CCN(C)CC3)c(F)cc3c(=O)c(C(=O)O)cn1c23.C[C@H]1COc2c(N3CCN(C)CC3)c(F)cc3c(=O)c(C(=O)O)cn1c23.O [LEVOFLOXACIN]	Streptococcus sanguinis	µg/mL	1
Cc1c(N2CC[C@@H]([C@H](C)N)C2)c(F)cc2c(=O)[nH]c(=O)n(C3CC3)c12	Streptococcus sanguinis	µg/mL	0.03
Cc1c(N2CC[C@@H]([C@H](C)N)C2)c(F)cc2c(=O)n(N)c(=O)n(C3CC3)c12	Streptococcus sanguinis	µg/mL	0.03

Q: Item COc1c(N2CCNC(C)C2)c(F)cc2c(=O)c(C(=O)O)cn(C3CC3)c12 (stereo not given) [GATIFLOXACIN] with Streptococcus sanguinis - MIC50?
A: 0.5

----------
Tested on: Escherichia coli
assay.protocol: Antibacterial activity against Escherichia coli
Type: functional
molecules and their reported MIC90

Example entries begin here.
molecule	parameter.measured	result
Cc1c(N2CC[C@@H]([C@H](C)N)C2)c(F)cc2c(=O)[nH]c(=O)n(C3CC3)c12	MIC90	8 µg/mL
Cc1c(N2CC[C@@H]([C@H](C)N)C2)c(F)cc2c(=O)n(N)c(=O)n(C3CC3)c12	MIC90	2 µg/mL
COc1c(N2CCNC(C)C2)c(F)cc2c(=O)c(C(=O)O)cn(C3CC3)c12 (stereo not given) [GATIFLOXACIN]	MIC90	1 µg/mL
C[C@H]1COc2c(N3CCN(C)CC3)c(F)cc3c(=O)c(C(=O)O)cn1c23.C[C@H]1COc2c(N3CCN(C)CC3)c(F)cc3c(=O)c(C(=O)O)cn1c23.O [LEVOFLOXACIN]	MIC90	1 µg/mL

Kindly review the next molecule as well.
Q: Return reported MIC90; argument: C[C@H]1NCc2cc(-c3ccc4c(=O)c(C(=O)O)cn(C5CC5)c4c3OC(F)F)ccc21 [GARENOXACIN]
A: 1 µg/mL

----------
Test system: Cutibacterium acnes
assay.protocol: Antibacterial activity against Propionibacterium acnes
Format: functional
Form field: MIC50 (one value per entry).
Give the number; µg/mL is assumed, so skip it.

>>> print(df.to_string())
                                   compound  parameter_measured  number
0  C[C@H]1NCc2cc(-c3ccc4c(=O)c(C(=O)O)cn(C5CC5)c4c3OC(F)F)ccc21               MIC50       1
1  Cc1c(N2CC[C@@H]([C@H](C)N)C2)c(F)cc2c(=O)n(N)c(=O)n(C3CC3)c12               MIC50       2
2  COc1c(N2CCNC(C)C2)c(F)cc2c(=O)c(C(=O)O)cn(C3CC3)c12 (stereo not given)               MIC50       1
3  Cc1c(N2CC[C@@H]([C@H](C)N)C2)c(F)cc2c(=O)[nH]c(=O)n(C3CC3)c12               MIC50       4

We now examine a further compound.
Q: Value lookup for MIC50; key = C[C@H]1COc2c(N3CCN(C)CC3)c(F)cc3c(=O)c(C(=O)O)cn1c23.C[C@H]1COc2c(N3CCN(C)CC3)c(F)cc3c(=O)c(C(=O)O)cn1c23.O
A: 2
